The compounds listed here are annotated with their inhibition.
- study target: MAP/microtubule affinity-regulating kinase 4 (Homo sapiens) (UniProt Q96L34);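 also: values are averaged percent inhibition of MARK4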
- Sequence (Q96L34 whole entry): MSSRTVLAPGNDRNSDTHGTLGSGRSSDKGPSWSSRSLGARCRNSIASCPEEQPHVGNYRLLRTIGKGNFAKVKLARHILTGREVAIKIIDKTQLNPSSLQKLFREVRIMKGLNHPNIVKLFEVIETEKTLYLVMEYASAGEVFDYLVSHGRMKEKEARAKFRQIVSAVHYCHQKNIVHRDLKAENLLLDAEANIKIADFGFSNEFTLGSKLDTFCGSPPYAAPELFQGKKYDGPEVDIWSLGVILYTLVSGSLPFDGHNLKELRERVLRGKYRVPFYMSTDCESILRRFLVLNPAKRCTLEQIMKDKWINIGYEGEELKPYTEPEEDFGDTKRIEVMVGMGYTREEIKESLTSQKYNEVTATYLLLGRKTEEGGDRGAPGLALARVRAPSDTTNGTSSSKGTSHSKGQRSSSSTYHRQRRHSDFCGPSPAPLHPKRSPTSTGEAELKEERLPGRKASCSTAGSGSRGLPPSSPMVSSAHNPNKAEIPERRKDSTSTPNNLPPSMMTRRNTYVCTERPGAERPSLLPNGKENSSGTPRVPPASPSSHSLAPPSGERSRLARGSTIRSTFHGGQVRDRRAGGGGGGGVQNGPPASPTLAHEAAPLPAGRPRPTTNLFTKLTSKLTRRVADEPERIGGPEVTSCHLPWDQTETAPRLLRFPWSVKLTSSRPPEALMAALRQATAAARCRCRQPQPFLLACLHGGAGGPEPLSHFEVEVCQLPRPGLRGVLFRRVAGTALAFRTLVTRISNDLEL
- recorded conditions: at 0.1 µM
Numeric only. Scale: %

compound	unit spec	endpoint value
COc1cc2ncn(-c3cc(OCCc4ccccc4)c(C(N)=O)s3)c2cc1OC	%	0.87
C#Cc1cccc(Nc2ncnc3ccc(OCCCCNCCS(C)(=O)=O)cc23)c1	%	2.28
O=C1Nc2ccccc2/C1=C/Nc1ccc(-n2cncn2)cc1	%	3.35

Kindly consider the entry below.
Lab note: need inhibition with MAP/microtubule affinity-regulating kinase 4 (Homo sapiens) (UniProt Q96L34) for entry `O=C1NC(=O)C(c2cccc(Cl)c2)=C1Nc1ccc(Cl)c(C(=O)O)c1` , please look it up.
0.26
